target-or-system: Type-1 angiotensin II receptor (Bos taurus)
Sequence (P25104 whole entry): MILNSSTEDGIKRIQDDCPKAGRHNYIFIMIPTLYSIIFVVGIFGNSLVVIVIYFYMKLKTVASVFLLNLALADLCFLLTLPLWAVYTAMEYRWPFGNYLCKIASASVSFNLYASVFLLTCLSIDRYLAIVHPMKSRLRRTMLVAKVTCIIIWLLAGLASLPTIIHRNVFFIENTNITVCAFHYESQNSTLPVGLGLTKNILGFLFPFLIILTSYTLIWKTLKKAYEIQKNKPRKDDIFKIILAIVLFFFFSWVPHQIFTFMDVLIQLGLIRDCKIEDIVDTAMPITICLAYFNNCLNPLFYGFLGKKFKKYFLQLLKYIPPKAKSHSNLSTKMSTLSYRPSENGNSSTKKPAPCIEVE
readout: log10(IC50) (log10 of the value in nM)
All values: log10 IC50 [nM].

INSERT INTO assay_data (compound, target_or_system, reported_result) VALUES
  ('CCCc1nc(C(C)(C)O)c(C(=O)OCC)n1Cc1ccc(-c2ccccc2-c2nnn[nH]2)cc1', 'Type-1 angiotensin II receptor (Bos taurus)', 2.30);

Provide log10(IC50) for all items below, preserving their order.
1. CCc1nc(C(C)(C)O)c(C(=O)O)n1Cc1ccc(-c2ccccc2-c2nnn[nH]2)cc1
2. C=C(C)c1nc(CCC)n(Cc2ccc(-c3ccccc3C(=O)O)cc2)c1C(=O)O
3. CCCc1ncc(C(=O)O)n1Cc1ccc(-c2ccccc2-c2nn[nH]n2)cc1
4. CCCc1nc(C(C)(C)O)c(C(=O)OCC)n1Cc1ccc(-c2ccccc2C(=O)O)cc1
5. CCCc1nc(C(C)O)c(C(=O)O)n1Cc1ccc(-c2ccccc2C(=O)O)cc1 (stereo not given)
6. CCCc1nc(C(C)(C)O)c(C(=O)O)n1Cc1ccc(-c2ccccc2C(=O)O)cc1

Reply text:
1. 0.72
2. 2.43
3. 0.96
4. 2.78
5. 1.45
6. 1.45

Origin of values: ChEMBL document CHEMBL1129298
